measuredTarget: Epidermal growth factor receptor (Homo sapiens, UniProt P00533)
Sequence (P00533 whole entry): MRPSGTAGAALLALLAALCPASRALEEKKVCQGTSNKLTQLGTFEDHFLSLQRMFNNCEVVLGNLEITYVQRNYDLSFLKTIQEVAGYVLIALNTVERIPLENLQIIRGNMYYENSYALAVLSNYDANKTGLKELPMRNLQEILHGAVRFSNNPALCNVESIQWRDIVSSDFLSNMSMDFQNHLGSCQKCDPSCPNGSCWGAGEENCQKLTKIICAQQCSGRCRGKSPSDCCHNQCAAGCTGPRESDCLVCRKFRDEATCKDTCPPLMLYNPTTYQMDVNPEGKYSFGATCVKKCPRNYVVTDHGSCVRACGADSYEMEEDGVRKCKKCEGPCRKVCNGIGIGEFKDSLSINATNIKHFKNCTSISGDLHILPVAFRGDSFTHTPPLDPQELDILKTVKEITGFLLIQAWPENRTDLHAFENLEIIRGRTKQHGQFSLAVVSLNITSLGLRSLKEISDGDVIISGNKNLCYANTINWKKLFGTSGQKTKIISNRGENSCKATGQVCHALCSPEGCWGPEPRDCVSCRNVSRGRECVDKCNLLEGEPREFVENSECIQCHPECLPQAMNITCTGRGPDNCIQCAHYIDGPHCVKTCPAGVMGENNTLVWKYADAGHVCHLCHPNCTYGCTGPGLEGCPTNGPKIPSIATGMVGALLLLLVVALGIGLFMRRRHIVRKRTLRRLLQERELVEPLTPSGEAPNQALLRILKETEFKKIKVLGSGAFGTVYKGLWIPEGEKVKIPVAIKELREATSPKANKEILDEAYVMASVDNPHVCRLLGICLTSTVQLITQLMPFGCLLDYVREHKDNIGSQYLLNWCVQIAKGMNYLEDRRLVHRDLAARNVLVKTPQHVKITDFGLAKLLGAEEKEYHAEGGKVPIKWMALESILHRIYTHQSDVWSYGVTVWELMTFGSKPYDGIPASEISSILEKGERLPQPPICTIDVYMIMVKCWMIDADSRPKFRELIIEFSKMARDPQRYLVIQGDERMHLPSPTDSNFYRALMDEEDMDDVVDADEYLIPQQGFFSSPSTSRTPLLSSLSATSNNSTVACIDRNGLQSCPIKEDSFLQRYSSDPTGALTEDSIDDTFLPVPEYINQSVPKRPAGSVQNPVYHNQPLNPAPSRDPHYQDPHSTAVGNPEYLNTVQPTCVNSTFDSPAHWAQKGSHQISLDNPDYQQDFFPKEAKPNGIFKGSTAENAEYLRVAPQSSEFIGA
assayComment: Inhibitory activity towards tyrosine phosphorylation for the epidermal growth factor-receptor kinase
pIC50: −log10 of the molar value.
Tag: YES if measured pIC50 is not below 8, NO if it is.

molecule | category
Cc1c(C(=O)N2CCN(C)CC2)c[nH]c1/C=C1\C(=O)Nc2ncnc(Nc3ccc(F)c(Cl)c3)c21 | NO
Cc1cc(C(=O)NCCN2CCOCC2)[nH]c1/C=C1\C(=O)N(C)c2ncnc(Nc3ccc(F)c(Cl)c3)c21 | NO
Cc1cc(C(=O)N2CCOCC2)[nH]c1/C=C1\C(=O)Nc2ncnc(Nc3ccc4c(c3)CCC4)c21 | NO
Cc1cc(CCC(=O)O)[nH]c1/C=C1\C(=O)Nc2ncnc(Nc3ccc(F)c(Cl)c3)c21 | YES
CCN(CC)CC(O)CNC(=O)c1cc(C)c(/C=C2\C(=O)Nc3ncnc(Nc4ccc(F)c(Cl)c4)c32)[nH]1 (configuration not stated) | YES
Cc1cc(C(=O)N2CCOCC2)[nH]c1/C=C1\C(=O)Nc2ncnc(Nc3ccc4c(ccn4Cc4ccccc4)c3)c21 | YES
Cc1cc(C(=O)N2CCOCC2)[nH]c1/C=C1\C(=O)Nc2ncnc(Nc3ccc(F)c(Cl)c3)c21 | NO
C#Cc1cccc(Nc2ncnc3c2/C(=C/c2[nH]c(C(=O)NCCN4CCOCC4)cc2C)C(=O)N3)c1 | NO
Cc1cc(C(=O)N2CCOCC2)[nH]c1/C=C1\C(=O)Nc2ncnc(Nc3ccc4c(cnn4Cc4ccccc4)c3)c21 | YES
Cc1[nH]c(/C=C2\C(=O)Nc3ncnc(Nc4ccc(F)c(Cl)c4)c32)c(C)c1CCC(=O)O | NO
Cc1cc(C(=O)NCCN2CCOCC2)[nH]c1/C=C1\C(=O)Nc2ncnc(Nc3ccc4c(ccn4Cc4ccccc4)c3)c21 | YES
Cc1cc(/C=C2\C(=O)Nc3ncnc(Nc4ccc(F)c(Cl)c4)c32)[nH]c1C(=O)N1CCN(C)CC1 | NO
Cc1cc(C)c(/C=C2\C(=O)N(C)c3ncnc(Nc4ccc(F)c(Cl)c4)c32)[nH]1 | NO
Cc1cc(C(=O)O)[nH]c1/C=C1\C(=O)Nc2ncnc(Nc3ccc(F)c(Cl)c3)c21 | NO
CCN(CC)CCNC(=O)c1cc(C)c(/C=C2\C(=O)Nc3ncnc(Nc4ccc(F)c(Cl)c4)c32)[nH]1 | YES
Cc1cc(C(=O)N2CCOCC2)[nH]c1/C=C1\C(=O)Nc2ncnc(N3CCCCC3)c21 | NO
Cc1cc(C(=O)N2CCN(C)CC2)[nH]c1/C=C1\C(=O)Nc2ncnc(Nc3ccc(F)c(Cl)c3)c21 | YES
Cc1cc(C)c(/C=C2\C(=O)Nc3ncnc(Nc4ccc(F)c(Cl)c4)c32)[nH]1 | NO
CCN(CC)CCNC(=O)c1cc(C)c(/C=C2\C(=O)Nc3ncnc(Nc4ccc(Cl)cc4F)c32)[nH]1 | NO
CCN(CC)CCNC(=O)c1c(C)[nH]c(/C=C2\C(=O)Nc3ncnc(Nc4ccc(F)c(Cl)c4)c32)c1C | NO
O=C1Nc2ncnc(Nc3ccc(F)c(Cl)c3)c2/C1=C/c1ccc(C(=O)NCCN2CCOCC2)[nH]1 | NO

###

measuredTarget: Epidermal growth factor receptor (Homo sapiens)
assayComment: Inhibition of autophosphorylation of human epidermal growth factor-receptor (EGF-R) expressed in A431 cells
Format: functional, cell-based, A-431
Quick reference for IC50 among some compounds

structureString | comparativeSign | IC50 / nM
Cc1cc(C(=O)N2CCOCC2)[nH]c1/C=C1\C(=O)Nc2ncnc(Nc3ccc(F)c(Cl)c3)c21 | = | 40
Cc1cc(C(=O)O)[nH]c1/C=C1\C(=O)Nc2ncnc(Nc3ccc(F)c(Cl)c3)c21 | > | 5000
C#Cc1cccc(Nc2ncnc3c2/C(=C/c2[nH]c(C(=O)NCCN4CCOCC4)cc2C)C(=O)N3)c1 | = | 40
CCN1CCN(C(=O)c2cc(C)c(/C=C3\C(=O)Nc4ncnc(Nc5ccc(F)c(Cl)c5)c43)[nH]2)CC1 | = | 200

###

measuredTarget: Vascular endothelial growth factor receptor 2 (Homo sapiens)
Sequence (P35968 whole entry): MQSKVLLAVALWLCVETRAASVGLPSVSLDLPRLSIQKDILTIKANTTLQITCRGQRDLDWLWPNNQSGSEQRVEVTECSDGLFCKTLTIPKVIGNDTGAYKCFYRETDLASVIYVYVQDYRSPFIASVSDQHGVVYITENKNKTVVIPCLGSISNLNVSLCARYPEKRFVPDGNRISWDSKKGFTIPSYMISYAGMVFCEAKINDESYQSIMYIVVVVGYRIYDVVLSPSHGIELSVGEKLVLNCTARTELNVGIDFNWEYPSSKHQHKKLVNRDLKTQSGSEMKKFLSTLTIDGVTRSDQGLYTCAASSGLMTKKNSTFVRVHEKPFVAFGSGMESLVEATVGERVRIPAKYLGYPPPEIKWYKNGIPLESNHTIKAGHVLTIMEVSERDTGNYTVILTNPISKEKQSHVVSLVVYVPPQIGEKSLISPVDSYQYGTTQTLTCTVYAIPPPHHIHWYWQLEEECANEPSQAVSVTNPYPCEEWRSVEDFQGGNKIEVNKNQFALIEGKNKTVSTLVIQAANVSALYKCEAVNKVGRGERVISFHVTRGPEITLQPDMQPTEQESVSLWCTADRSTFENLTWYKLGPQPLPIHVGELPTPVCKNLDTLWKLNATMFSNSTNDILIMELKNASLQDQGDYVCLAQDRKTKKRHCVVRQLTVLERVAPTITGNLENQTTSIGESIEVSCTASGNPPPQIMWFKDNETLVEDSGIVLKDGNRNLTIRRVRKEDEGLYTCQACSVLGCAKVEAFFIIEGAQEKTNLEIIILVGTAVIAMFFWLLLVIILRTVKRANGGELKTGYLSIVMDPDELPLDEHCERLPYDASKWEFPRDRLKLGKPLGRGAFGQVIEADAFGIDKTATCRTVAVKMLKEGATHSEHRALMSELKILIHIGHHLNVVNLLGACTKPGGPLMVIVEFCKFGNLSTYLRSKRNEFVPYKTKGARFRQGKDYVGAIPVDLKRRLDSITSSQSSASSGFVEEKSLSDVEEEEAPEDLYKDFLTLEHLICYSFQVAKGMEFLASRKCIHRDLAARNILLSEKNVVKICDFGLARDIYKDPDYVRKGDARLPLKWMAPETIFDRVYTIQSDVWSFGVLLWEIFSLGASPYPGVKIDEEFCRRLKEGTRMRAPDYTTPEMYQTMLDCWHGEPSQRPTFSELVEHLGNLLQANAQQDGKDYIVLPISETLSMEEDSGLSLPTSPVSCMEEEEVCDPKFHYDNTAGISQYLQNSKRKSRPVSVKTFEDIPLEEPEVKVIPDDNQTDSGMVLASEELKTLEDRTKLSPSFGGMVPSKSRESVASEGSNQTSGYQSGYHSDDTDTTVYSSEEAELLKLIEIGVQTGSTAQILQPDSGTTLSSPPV
assayComment: Inhibition of tyrosine phosphorylation in cells expressing human VEGFR2 (Flk-1/KDR) kinase
metricName: IC50 (µM)

compound | comparativeSign | recordedNumber
CCN(CC)CC(O)CNC(=O)c1cc(C)c(/C=C2\C(=O)Nc3ncnc(Nc4ccc(F)c(Cl)c4)c32)[nH]1 (stereo not drawn) | = | 0.36
Cc1cc(C(=O)N2CCOCC2)[nH]c1/C=C1\C(=O)Nc2ncnc(Nc3ccc4c(c3)CCC4)c21 | = | 3.46
Cc1cc(C(=O)N2CCOCC2)[nH]c1/C=C1\C(=O)Nc2ncnc(Nc3ccc(F)c(Cl)c3)c21 | > | 20
Cc1cc(C(=O)N2CCN(C)CC2)[nH]c1/C=C1\C(=O)Nc2ncnc(Nc3ccc(F)c(Cl)c3)c21 | > | 20
CCN(CC)CCNC(=O)c1c(C)[nH]c(/C=C2\C(=O)Nc3ncnc(Nc4ccc(F)c(Cl)c4)c32)c1C | = | 3.47
CCN1CCN(C(=O)c2cc(C)c(/C=C3\C(=O)Nc4ncnc(Nc5ccc(F)c(Cl)c5)c43)[nH]2)CC1 | > | 20
C#Cc1cccc(Nc2ncnc3c2/C(=C/c2[nH]c(C(=O)NCCN4CCOCC4)cc2C)C(=O)N3)c1 | > | 20
Cc1cc(C(=O)N2CCOCC2)[nH]c1/C=C1\C(=O)Nc2ncnc(Nc3ccc4c(ccn4Cc4ccccc4)c3)c21 | = | 2.05

###

measuredTarget: Vascular endothelial growth factor receptor 2 (Homo sapiens)
assayComment: Inhibition of tyrosine phosphorylation in cells expressing human VEGFR2 (Flk-1/KDR) kinase

structureString | IC50
Cc1cc(C(=O)N2CCOCC2)[nH]c1/C=C1\C(=O)Nc2ncnc(N3CCCCC3)c21 | > 20 µM
Cc1cc(C(=O)N2CCOCC2)[nH]c1/C=C1\C(=O)Nc2ncnc(Nc3ccc4c(cnn4Cc4ccccc4)c3)c21 | 2.1 µM
CCN(CC)CCNC(=O)c1cc(C)c(/C=C2\C(=O)Nc3ncnc(Nc4ccc(Cl)cc4F)c32)[nH]1 | 0.04 µM
Cc1c(C(=O)N2CCN(C)CC2)c[nH]c1/C=C1\C(=O)Nc2ncnc(Nc3ccc(F)c(Cl)c3)c21 | > 20 µM
Cc1cc(CCC(=O)O)[nH]c1/C=C1\C(=O)Nc2ncnc(Nc3ccc(F)c(Cl)c3)c21 | > 20 µM
O=C1Nc2ncnc(Nc3ccc(F)c(Cl)c3)c2/C1=C/c1ccc(C(=O)NCCN2CCOCC2)[nH]1 | > 20 µM
Cc1cc(C(=O)NCCN2CCOCC2)[nH]c1/C=C1\C(=O)Nc2ncnc(Nc3ccc(F)c(Cl)c3)c21 | > 20 µM
Cc1cc(/C=C2\C(=O)Nc3ncnc(Nc4ccc(F)c(Cl)c4)c32)[nH]c1C(=O)N1CCN(C)CC1 | > 20 µM

###

pIC50: −log10 of the molar value.
Test system Platelet-derived growth factor receptor beta (Homo sapiens, UniProt P09619), pIC50 listed for each of the compounds.

structureString | pIC50
Cc1cc(C(=O)O)[nH]c1/C=C1\C(=O)Nc2ncnc(Nc3ccc(F)c(Cl)c3)c21 | < 4.70
Cc1c(C(=O)N2CCN(C)CC2)c[nH]c1/C=C1\C(=O)Nc2ncnc(Nc3ccc(F)c(Cl)c3)c21 | < 4.70
CCN(CC)CCNC(=O)c1cc(C)c(/C=C2\C(=O)Nc3ncnc(Nc4ccc(Cl)cc4F)c32)[nH]1 | 5.25
Cc1cc(CCC(=O)O)[nH]c1/C=C1\C(=O)Nc2ncnc(Nc3ccc(F)c(Cl)c3)c21 | < 4.70
Cc1cc(C(=O)N2CCOCC2)[nH]c1/C=C1\C(=O)Nc2ncnc(Nc3ccc4c(c3)CCC4)c21 | < 4.70
Cc1cc(C(=O)N2CCOCC2)[nH]c1/C=C1\C(=O)Nc2ncnc(Nc3ccc(F)c(Cl)c3)c21 | < 4.70

###

measuredTarget: Receptor tyrosine-protein kinase erbB-2 (Homo sapiens, UniProt P04626)
Sequence (P04626 whole entry): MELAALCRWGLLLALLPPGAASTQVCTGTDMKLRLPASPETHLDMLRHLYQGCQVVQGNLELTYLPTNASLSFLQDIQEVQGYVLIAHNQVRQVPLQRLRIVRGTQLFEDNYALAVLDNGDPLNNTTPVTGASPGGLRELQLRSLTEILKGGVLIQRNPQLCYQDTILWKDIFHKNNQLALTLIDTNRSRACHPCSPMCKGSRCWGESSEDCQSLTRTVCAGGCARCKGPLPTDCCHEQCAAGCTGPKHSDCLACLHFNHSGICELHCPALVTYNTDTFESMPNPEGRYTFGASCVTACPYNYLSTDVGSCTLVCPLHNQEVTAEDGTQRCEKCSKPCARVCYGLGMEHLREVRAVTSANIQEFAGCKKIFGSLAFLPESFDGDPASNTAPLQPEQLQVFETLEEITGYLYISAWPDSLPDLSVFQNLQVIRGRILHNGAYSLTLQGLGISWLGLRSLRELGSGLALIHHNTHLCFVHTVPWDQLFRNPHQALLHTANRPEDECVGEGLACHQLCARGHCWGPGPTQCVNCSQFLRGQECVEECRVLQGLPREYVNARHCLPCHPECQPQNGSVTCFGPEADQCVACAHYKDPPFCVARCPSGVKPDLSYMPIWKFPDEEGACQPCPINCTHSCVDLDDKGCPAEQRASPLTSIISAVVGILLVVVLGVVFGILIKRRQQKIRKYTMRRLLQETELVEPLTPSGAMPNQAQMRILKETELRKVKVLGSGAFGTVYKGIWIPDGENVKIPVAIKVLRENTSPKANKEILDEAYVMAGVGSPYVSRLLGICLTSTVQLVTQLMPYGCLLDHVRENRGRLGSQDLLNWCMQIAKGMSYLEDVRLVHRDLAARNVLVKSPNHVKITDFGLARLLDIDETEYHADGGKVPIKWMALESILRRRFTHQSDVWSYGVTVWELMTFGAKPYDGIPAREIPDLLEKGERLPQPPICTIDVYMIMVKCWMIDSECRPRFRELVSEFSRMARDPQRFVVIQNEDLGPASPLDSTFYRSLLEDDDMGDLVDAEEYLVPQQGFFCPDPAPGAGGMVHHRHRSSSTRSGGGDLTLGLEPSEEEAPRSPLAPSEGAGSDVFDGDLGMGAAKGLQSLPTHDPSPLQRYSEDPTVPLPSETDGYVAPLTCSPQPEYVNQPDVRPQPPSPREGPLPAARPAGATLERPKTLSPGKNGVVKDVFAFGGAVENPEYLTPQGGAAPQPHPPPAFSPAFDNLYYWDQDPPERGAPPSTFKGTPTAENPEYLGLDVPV
assayComment: Inhibition of autophosphorylation of human Her (p185erbB) tyrosine kinase expressed in SKOV-3 cells
pIC50: −log10 of the molar value.
Item-by-item account of pIC50
metricName: pIC50

compound | metricName | comparativeSign | recordedNumber
Cc1cc(C(=O)NCCN2CCOCC2)[nH]c1/C=C1\C(=O)Nc2ncnc(Nc3ccc(F)c(Cl)c3)c21 | pIC50 | = | 7.00
Cc1cc(C(=O)N2CCOCC2)[nH]c1/C=C1\C(=O)Nc2ncnc(Nc3ccc4c(ccn4Cc4ccccc4)c3)c21 | pIC50 | = | 7.00
Cc1cc(C(=O)N2CCOCC2)[nH]c1/C=C1\C(=O)Nc2ncnc(Nc3ccc4c(c3)CCC4)c21 | pIC50 | < | 5.30
Cc1cc(C(=O)N2CC(C)NC(C)C2)[nH]c1/C=C1\C(=O)Nc2ncnc(Nc3ccc(F)c(Cl)c3)c21 (stereo not drawn) | pIC50 | = | 6.30
Cc1cc(C(=O)O)[nH]c1/C=C1\C(=O)Nc2ncnc(Nc3ccc(F)c(Cl)c3)c21 | pIC50 | < | 5.30
Cc1cc(C(=O)N2CCN(C)CC2)[nH]c1/C=C1\C(=O)Nc2ncnc(Nc3ccc(F)c(Cl)c3)c21 | pIC50 | = | 6.70
Cc1cc(C(=O)N2CCOCC2)[nH]c1/C=C1\C(=O)Nc2ncnc(Nc3ccc4c(cnn4Cc4ccccc4)c3)c21 | pIC50 | = | 7.00
Cc1cc(C(=O)N2CCOCC2)[nH]c1/C=C1\C(=O)Nc2ncnc(Nc3ccc(F)c(Cl)c3)c21 | pIC50 | = | 6.40
